From: ChEMBL document CHEMBL3994660

tested on: Hepatitis C virus; assay: Inhibition of HCV NS3 protein expression infected in human Huh7.5 cells at 25 uM after 6 hrs by Western blot method relative to control; type: functional, Hepacivirus hominis; conditions: Huh7.5, 6 h
Decision: inhibition at 25 µM >= 30% yields 1.0, all other cases yield 0.0.

Example cases with answers are listed next.
compound: CCN(CC)c1ccc2c(c1)Oc1nc(N)c(C#N)c(N)c1C2Sc1ccc(F)cc1 (stereo unspecified)
category: 0.0
--
compound: CCN(CC)c1ccc2c(c1)Oc1nc(N)c(C#N)c(N)c1C2Sc1ccc(OC)cc1 (stereo unspecified)
category: 0.0
--
compound: CCc1ccc(SC2c3ccc(N(CC)CC)cc3Oc3nc(N)c(C#N)c(N)c32)cc1 (stereo unspecified)
category: 0.0
--
compound: CCN(CC)c1ccc2c(c1)Oc1nc(N)c(C#N)c(N)c1C2Sc1ccc(SC)cc1 (stereo unspecified)
category: 1.0
--
compound: CCN(CC)c1ccc2c(c1)Oc1nc(N)c(C#N)c(N)c1C2Sc1ccc(Cl)cc1 (stereo unspecified)
category: 1.0

Query :: For this compound, is measured inhibition at 25 µM 30% or higher? CCN(CC)c1ccc2c(c1)Oc1nc(N)c(C#N)c(N)c1C2Sc1ccc(Br)cc1 (stereo unspecified)
Result :: 1.0
